tested on: human cord blood CD34+ cells; assay: megakaryocyte colony formation of human cord blood CD34+ cells; format: cell-based; conditions: read-out: induction of megakaryocyte colony formation, EC50
pEC50: −log10 of the molar value.
experimental_readout: pEC50

O=C(Nc1nc(-c2cc(Cl)cs2)c(N2CCN(C3CCCCC3)CC2)s1)c1cnc(N2CCC(C(=O)O)CC2)c(Cl)c1 [FORMULA X]: 7.60

----------
molecular target: human receptor (c-Mpl)-expressing Ba/F3 cells (Homo sapiens); assay: proliferation of human c-Mpl-expressing Ba/F3 cells (c-Mpl-Ba/F3 cells); conditions: read-out: proliferation in a c-Mpl-dependent manner, EC50
Sequence (P40238 26-635): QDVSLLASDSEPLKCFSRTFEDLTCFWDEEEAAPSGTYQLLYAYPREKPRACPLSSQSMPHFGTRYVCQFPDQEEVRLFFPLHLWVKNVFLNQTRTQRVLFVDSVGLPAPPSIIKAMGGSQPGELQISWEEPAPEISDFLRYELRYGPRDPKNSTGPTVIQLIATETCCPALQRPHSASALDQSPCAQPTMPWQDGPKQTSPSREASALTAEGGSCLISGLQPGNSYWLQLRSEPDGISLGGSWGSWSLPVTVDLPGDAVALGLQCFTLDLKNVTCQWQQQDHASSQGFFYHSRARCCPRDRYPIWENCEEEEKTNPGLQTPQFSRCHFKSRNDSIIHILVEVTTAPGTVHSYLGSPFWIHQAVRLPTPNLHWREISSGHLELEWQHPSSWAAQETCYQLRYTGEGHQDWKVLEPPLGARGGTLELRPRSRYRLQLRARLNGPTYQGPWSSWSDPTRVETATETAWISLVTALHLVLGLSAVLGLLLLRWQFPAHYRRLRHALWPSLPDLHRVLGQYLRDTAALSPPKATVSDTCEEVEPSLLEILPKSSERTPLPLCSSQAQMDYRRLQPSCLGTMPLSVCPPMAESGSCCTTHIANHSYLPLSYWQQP
experimental_readout: EC50 (nM)

O=C(Nc1nc(-c2cc(Cl)cs2)c(N2CCN(C3CCCCC3)CC2)s1)c1cnc(N2CCC(C(=O)O)CC2)c(Cl)c1: 3.3

Reference source for all entries: patent US20070203153A1
